Target: T1, gp130 on HepG2 B6 cells (UniProt P40189 23-918, limits assumed)
T1 sequence (looked up): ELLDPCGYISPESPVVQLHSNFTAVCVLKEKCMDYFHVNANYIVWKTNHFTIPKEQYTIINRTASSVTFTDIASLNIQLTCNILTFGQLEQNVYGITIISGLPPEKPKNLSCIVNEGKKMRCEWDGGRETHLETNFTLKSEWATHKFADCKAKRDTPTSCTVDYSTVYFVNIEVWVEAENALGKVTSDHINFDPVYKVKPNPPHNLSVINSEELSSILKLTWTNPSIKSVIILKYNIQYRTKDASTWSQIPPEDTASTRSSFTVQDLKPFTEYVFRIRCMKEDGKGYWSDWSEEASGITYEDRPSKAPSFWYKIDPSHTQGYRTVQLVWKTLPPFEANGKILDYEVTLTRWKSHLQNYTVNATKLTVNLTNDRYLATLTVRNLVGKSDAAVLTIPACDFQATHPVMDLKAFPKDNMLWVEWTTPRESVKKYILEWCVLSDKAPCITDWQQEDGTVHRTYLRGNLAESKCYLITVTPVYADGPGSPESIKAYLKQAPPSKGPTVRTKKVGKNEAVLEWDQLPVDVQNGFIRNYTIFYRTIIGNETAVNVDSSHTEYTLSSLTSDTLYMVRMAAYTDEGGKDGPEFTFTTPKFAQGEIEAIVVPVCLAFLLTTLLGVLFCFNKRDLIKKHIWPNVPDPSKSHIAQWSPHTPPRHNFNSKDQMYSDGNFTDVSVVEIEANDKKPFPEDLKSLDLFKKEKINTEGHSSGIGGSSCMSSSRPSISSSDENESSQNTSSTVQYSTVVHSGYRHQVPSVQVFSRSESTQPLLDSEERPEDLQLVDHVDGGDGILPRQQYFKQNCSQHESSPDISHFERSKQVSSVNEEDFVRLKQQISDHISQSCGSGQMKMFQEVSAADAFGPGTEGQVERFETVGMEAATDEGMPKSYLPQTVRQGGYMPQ
Assay: cell-based or functional assay
measured-property: sPAP HepG2 B6 assay: Expt 2 EC50 (µg/mL)
Unit µg/mL implied. Number only.

For OSM-GST mutant L13A (ligand, Alanine mutant of m4; also called (6)L13A; 6 L13A; not shown: Its linker is left out) AAIGSCSKEYRVALGQLQKQTDLMQDTSRLLDPYIRIQGLDVPKLREHCRERPGAFPSEETLRGLGRRGFLQTLNATLGCVLHRLADLEQRLPKAQDLERSGLNIEDLEKLQMARPNILGLRNNIYCMAQLLDNSDTAEPTKAGRGASQPPTPTPASDAFQRKLEGCRFLHGYHRFMHSVGRVFSKWGESPNRSRR , what is its reported sPAP HepG2 B6 assay: Expt 2 EC50?
0.0549

For OSM-GST mutant R11A (ligand, not shown: a dimerising Fc or GST; large carriers; small tags and cut ends, Alanine mutant of m4; also called (5)R11A; 5 R11A) AAIGSCSKEYAVLLGQLQKQTDLMQDTSRLLDPYIRIQGLDVPKLREHCRERPGAFPSEETLRGLGRRGFLQTLNATLGCVLHRLADLEQRLPKAQDLERSGLNIEDLEKLQMARPNILGLRNNIYCMAQLLDNSDTAEPTKAGRGASQPPTPTPASDAFQRKLEGCRFLHGYHRFMHSVGRVFSKWGESPNRSRR , what is its reported sPAP HepG2 B6 assay: Expt 2 EC50?
0.0277
